The reported numbers originate from PubChem BioAssay (NCI).

- System: OVCAR-5 ovarian
- assay_notes: NCI-60 one-dose screen, 48 h (100 = growth as untreated, 0 = no growth, -100 = all killed)
- experimental_context: 10 µM unless noted
This is part of a sample that, as a whole, favours compounds with a hit. Of some 83,000 tested, about 20% had one in any assay.
// boundary case: growth equal to 80% maps to -1; strictly smaller maps to 1

compound	group_label
CC(C)c1nc2ccccc2n1CC(=O)N/N=C/c1cccc(O)c1	-1
CC(=O)c1ccc(N2C(=O)c3ccc(Oc4ccccc4)cc3C2=O)cc1	-1
CCCCCCCCCCCCCCCCCC1=NCCN1CCO	-1
CC(C)CC(=O)C(CCc1ccccn1)C(C)C (configuration not stated)	-1
Nc1nc(NC2CC2)cc(-c2cccc(Cl)c2Cl)n1	-1
C=CCOC(=O)C1=C(C)NC2=C(C(=O)CCC2)C1c1ccc(F)cc1 (configuration not stated)	-1
C#C[C@]1(O)CC[C@H]2[C@@H]3CC=C4c5sc(-c6cccc(Br)c6)nc5CC[C@]4(C)[C@H]3CC[C@@]21C	1
CCn1c(Cc2ccccc2Nc2c(Cl)cccc2Cl)nnc1SCC(=O)Nc1cccc(OC)c1	-1
N=C(N)c1ccc(NCCNc2ccc(C(=N)N)cc2)cc1	-1
CC1CCCN(CCCCOc2ccc(-c3ccc(C#N)cc3)cc2)C1 (configuration not stated)	-1
CC1(C)CN(CCNc2nccc(-c3c(-c4cccc(O)c4)nc4sccn34)n2)S(=O)(=O)N1	-1
COc1cc2c(=O)n(CCCN(C)C)c3c4cc[nH]c4ncc3c2cc1OC	1
COc1ccc(C(=O)OC2C(OC3C(O)COC(O[C@H]4C[C@H]5[C@@H]6CC=C7C[C@@H](O)CC[C@]7(C)[C@H]6CC[C@]5(C)[C@H]4[C@H](C)C(=O)CCC(C)C)C3OC(=O)C(C)C)OCC(O)C2O)cc1 (some centres not stated)	1
COC1(OC)C2(Cl)CCC1(Cl)C(Cl)=C2Cl	-1
C=C1C(=O)O[C@H]2[C@H]1CC/C(COC(=O)NCc1ccc(Cn3c(=O)sn(CCCl)c3=O)cc1)=C\CC[C@@]1(C)O[C@@H]21	-1
COc1ccc2nc3ccccc3c(NCc3ccc(C)cc3)c2c1	1
COc1ccc(CNc2c3ccccc3nc3ccc(OC)cc23)cc1	1
S=C(Cc1ccccc1)N1CCN(c2ccccc2Cl)CC1	-1
C=C1C(=O)O[C@H]2[C@H]1CC/C(COC(=O)NCc1cccc(OC)c1)=C\CC[C@@]1(C)O[C@@H]21	1
CC(C)(C)c1ccc(OC(=O)Nc2ccccc2)cc1	-1
NC(N)=N/N=C/c1ccc(Cl)cc1	-1

###

- Test system: ACHN renal
- assay_notes: NCI-60 one-dose screen, 48 h (100 = growth as untreated, 0 = no growth, -100 = all killed)
- experimental_context: 10 µM unless noted
This is part of a sample that, as a whole, favours compounds with a hit. Of some 83,000 tested, about 20% had one in any assay.
quantity: growth (%)

In [3]: df
Out[3]:
                                   molecule  quantity  unit_of_measurement  value_measured
0                         CCSc1cnnc2ccccc12    growth                    %            95.1
1  C[C@@H]1CC2C3CCC4=CC(=O)C=C[C@]4(C)[C@@]3(Cl)[C@@H](O)C[C@]2(C)[C@@]1(OC(=O)c1ccco1)C(=O)CCl (some centres undefined)    growth                    %            82.4
2                 Nc1cc(C(=O)O)cc(C(=O)O)c1    growth                    %             109
3  CN(C)CCCn1c(=O)c2cc([N+](=O)[O-])ccc2c2cnc3[nH]ccc3c21    growth                    %            27.9
4  O=C(CSc1nnc(Cc2ccccc2Nc2c(Cl)cccc2Cl)n1-c1ccccc1)N1N=C(c2ccc3ccccc3c2)CC1c1ccc(Cl)cc1 (centres undefined)    growth                    %             109
5                   CCCC(CCC)(C(N)=O)C(=O)O    growth                    %             103
6  COc1cc(C2CC(c3ccc(C)cc3)=NN2C=O)ccc1Oc1nc2c(c(=O)n(C)c(=O)n2C)n1C (centres undefined)    growth                    %            88.1
7  C=C1C(=O)O[C@H]2[C@H]1CC/C(COC(=O)N[C@@H](Cc1c[nH]c3ccccc13)C(=O)OC)=C\CC[C@@]1(C)O[C@@H]21    growth                    %            7.04
8  O=c1c2cc(Cl)ccc2oc2ccc(OCCCCCN3CCCCCC3)cc12    growth                    %             110

###

Reported growth by item:
- Test system: ACHN renal
- assay_notes: NCI-60 one-dose screen, 48 h (100 = growth as untreated, 0 = no growth, -100 = all killed)
- experimental_context: 10 µM unless noted
Compounds without any hit were thinned out: in the full panel of roughly 83,000, 20% have a hit.
quantity: growth (%)

                                    molecule  quantity  value_measured
 0  COc1cc2ncnc(Nc3ccc(S(=O)(=O)Nc4cc(C)on4)cc3)c2cc1OCCCN1CCN(c2ccc([N+](=O)[O-])cc2)CC1    growth             109
 1  CCN(CC)CCCCCCCCNc1c2ccc(Cl)cc2nc2ccc(OC)cc12    growth             -58
 2                    NNc1ccc(S(N)(=O)=O)cc1    growth             105
 3  O=C1c2cccc3cccc(c23)C(=O)N1CCCCCCCCCCN1C(=O)c2cccc3cccc(c23)C1=O    growth            96.2
 4  N/C(=N\OC(=O)c1ccccc1)C(Cc1ccccc1)C(=O)NOC(=O)c1ccccc1 (stereo unspecified)    growth            15.1
 5  CCCCCCCCOC(=O)C(C)OC(=O)OCCOCCOC(=O)OC(C)C(=O)OCCCCCCCC (stereo unspecified)    growth            98.8
 6  C=C1C(=O)O[C@H]2[C@H]1CC/C(COC(=O)NCc1ccc(Cn3c(=O)sn(CCCl)c3=O)cc1)=C\CC[C@@]1(C)O[C@@H]21    growth            70.3
 7  COc1cccc(-c2nc3sccn3c2-c2ccnc(NCCN3CCCNS3(=O)=O)n2)c1    growth            48.4
 8        CCCCCCCCCCCCCCCC1=NC(C)(C)CN1C(C)C    growth           -58.3
 9  CC(=O)OC[C@H]1O[C@@H](n2c(=O)cc(N)[nH]c2=O)C(OC(C)=O)[C@@H]1OC(C)=O (stereo partly specified)    growth             101
10  COc1ccc(-n2c(COc3ccc(F)cc3)n[nH]c2=S)cc1    growth            99.7
11              COc1ccccc1/C=C/C(=O)CCC(=O)O    growth             101
12  COc1cnc2c(c1)C(=O)c1c-2n(CCCNC(C)C)c(=O)c2cc(Cl)ccc12    growth            -100
13         CC(C)(CCc1ccccn1)C(=O)CCCc1ccccn1    growth            97.4
14  Oc1ccc(-c2nc3ccccc3s2)cc1CN(Cc1ccccn1)Cc1ccccn1    growth            4.42
15     O=C(Cc1ccc([N+](=O)[O-])cc1)Oc1ccccc1    growth             110
16     O=C(O)CSc1ccc(NCc2oc(CO)cc(=O)c2O)cc1    growth            97.3
17  CCC1N=C(N)N=C(N)N1c1ccc(Cl)cc1 (stereo unspecified)    growth             108
18     CCN(CC)CCNC(=O)C(F)(F)C(F)(F)C(F)(F)F    growth             101
19  Cc1nn(-c2cccc(Cl)c2)c(C)c1N=Nc1ccc(Br)cc1    growth              92
20    C=CCCCCOc1cccc(/C=C2\N=C3SCCCN3C2=O)c1    growth            99.2

###

- System: SF-268 CNS
- assay_notes: NCI-60 one-dose screen, 48 h (100 = growth as untreated, 0 = no growth, -100 = all killed)
- experimental_context: 10 µM unless noted
This is part of a sample that, as a whole, favours compounds with a hit. Of some 83,000 tested, about 20% had one in any assay.
Reported growth by item:
quantity: growth (%)

In [3]: df
Out[3]:
                                    molecule  measured_target  value_measured
 0  CN1C(=O)N(C)C2C1NN=c1s/c(=C\c3ccc(C(F)(F)F)cc3)c(=O)n12 (stereo not drawn)       SF-268 CNS            45.1
 1        Nc1nc(NC2CC2)cc(-c2cccc(Cl)c2Cl)n1       SF-268 CNS            67.6
 2  COc1ccc(-c2nc(SCCC(C)C)nc(Nc3ccc(C(=O)O)cc3)c2C#N)cc1       SF-268 CNS            89.4
 3  O=C1Nc2ccc(Br)cc2/C1=N/c1nc(-c2ccccc2)cs1       SF-268 CNS            79.5
 4  CN(C)c1ccc(C2(Cl)c3ccccc3N(C)c3ccccc32)cc1       SF-268 CNS            18.2
 5              O=C(N/N=C/c1ccccc1O)c1ccncc1       SF-268 CNS            48.3
 6                               Brc1ccsc1Br       SF-268 CNS             113
 7  CC(=O)CC(c1ccc([N+](=O)[O-])cc1)c1c(O)c2ccccc2oc1=O (stereo not drawn)       SF-268 CNS              99
 8  COc1cccc(C2C(C#N)=C(N)Oc3cc4c(cc32)OCO4)c1 (stereo not drawn)       SF-268 CNS            29.9
 9  CC(C)[C@@]12C[C@@H](OC(=O)[C@H]3CO3)[C@@](C)(O1)[C@@H]1CC[C@@H](C)[C@H]1[C@@H]2OC(=O)/C=C/c1ccccc1       SF-268 CNS            54.8
10                           CC(=O)Cc1ccccn1       SF-268 CNS            98.7
11    COc1ccc(-c2ccc(-c3ccc(C(=N)N)s3)s2)cc1       SF-268 CNS           -61.3
12  COc1cc(-c2nn(C(=O)NCCN3CCN(C)CC3)cc2-c2ccncc2)ccc1Cl       SF-268 CNS            46.2
13          Cc1cccc(N=NC(=S)NNc2cccc(C)c2)c1       SF-268 CNS             135
14  COc1ccccc1CNCCCN1C(=O)c2ccc3c4c(ccc(c24)C1=O)C(=O)N(CCCOCCCCOCCCN)C3=O       SF-268 CNS           -21.5
15  CCOC(=O)c1ccc2c(c1)nc(-c1ccc(Cl)cc1)n2-c1cc(C(C)(C)C)[nH]n1       SF-268 CNS            44.8
16  CC(C)CC(=O)C(CCc1ccccn1)C(C)C (stereo not drawn)       SF-268 CNS             103
17              NC(=O)c1ccc[n+](Cc2ccccc2)c1       SF-268 CNS             107
18  O=C(CSc1nc2c(n1Nc1ccccc1)-c1ccccc1SC2)Nc1nccs1       SF-268 CNS            96.2
19  CN1C2CCC1/C(=C\c1ccc(Cl)cc1)C(=O)/C2=C/c1ccc(Cl)cc1       SF-268 CNS            60.5
20        Clc1ccc(Cl)c(N=Cc2ccc3c(c2)OCO3)c1       SF-268 CNS             105
21  CN(C)N1C(=O)c2c(Cl)c(Cl)c(Cl)c(Cl)c2C1=O       SF-268 CNS             106
22  CS(=O)(=O)c1ccc(C(=O)N/N=C/c2ccccc2O)cc1       SF-268 CNS            38.4
